# Run Description: Inhibition of [3H]- Thymidine incorporation into the DNA of differentiated neuroblastoma clone N-2a cells.
# Type: functional, cell-based
# Condition Details: Mus musculus, N2a
pIC50: −log10 of the molar value.
Measured Metric: pIC50

[
  {
    "Smiles Str": "CN1CC(=O)NC1=N.NCCc1c[nH]c2c(F)c(O)c(O)cc12",
    "Measured Number": 3.90
  },
  {
    "Smiles Str": "CN1CC(=O)NC1=N.NCCc1c[nH]c2c(F)c(O)c(O)c(F)c12",
    "Measured Number": 3.87
  },
  {
    "Smiles Str": "CN1CC(=O)NC1=N.NCCc1c[nH]c2cc(O)c(O)c(F)c12",
    "Measured Number": 3.93
  }
]
